Data origin: PubChem BioAssay (NCI)

- Tested on: UACC-62 melanoma
- ASSAY_PROTOCOL: NCI-60 one-dose screen, 48 h (100 = growth as untreated, 0 = no growth, -100 = all killed)
- ASSAY_CONDITIONS: 10 µM unless noted
- Experimental: Growth inhibition of the UACC-62 human tumor cell line is measured as a screen for anti-cancer activity. Cells are grown in 96 well plates and exposed to the test compound for 48 hours. Compounds are tested at a single concentration, which is 10^-5 M for most compounds. The reported endpoint is percent growth (GI% or GIPRCNT), where numbers from 0 - 100% represent growth inhibition, and numbers from -100% - 0 represent cell death. For example, a value of 40 represents 60% growth inhibition. […]
About 83,000 compounds went through this panel and 20% of them were active in at least one assay; those are over-represented in the sample as a whole.
Entries and their measured growth follow.
Output spec: scalar in %, unitless text.

Worked examples follow.
1. NS(=O)(=O)c1cccc(Nc2nc(SCC(=O)c3ccc(Br)cc3)nc3ccccc23)c1: 59.1
2. CN(C)CCCNc1c2ccc(Cl)cc2nc2c1oc1ccc(Cl)cc12: 12.6
3. Clc1ccc2c(NCCCN3CCOCC3)c3oc4ccccc4c3nc2c1: 66.6
4. Clc1ccc2oc3c(NCCCn4ccnc4)c4ccccc4nc3c2c1: 45.2

From here, focus on the item given below.
Record request: growth value, item `N#Cc1c(-c2ccc(Cl)cc2)nc2c(-c3ccccc3)c(Nc3ccccc3)nn2c1N`
62.8
